test system: EKVX; experiment: NCI 60 cell line screen (SRB), Non-Small Cell Lung Cancer; type: cell-based
Readout: Log10LC50

>>> test_value("COC1OC2(C)CCC3CCCC(CCOC(=O)c4cccc(C(=O)OCCC5CCCC6CCC7(C)OOC56C(OC)O7)c4)C31OO2 (stereo not shown)")
">−4.30 M"
>>> test_value("COC1OC2(C)CCC3CCCC(CCOC(=O)c4ccc(C(=O)OCCC5CCCC6CCC7(C)OOC56C(OC)O7)cc4)C31OO2 (stereo not shown)")
">−4.00 M"
>>> test_value("COC1OC2(C)CCC3CCCC(CCOCCC4CCCC5CCC6(C)OOC45C(OC)O6)C31OO2 (stereo not shown)")
">−4.00 M"
>>> test_value("C[C@@H]1CC[C@H]2[C@@H](C)C(=O)O[C@@H]3O[C@@]4(C)CC[C@@H]1[C@]32OO4 [QHS, reference compound]")
">−4.00 M"

----------
Reported Log10LC50 values for a set of compounds
test system: HT29; experiment: NCI 60 cell line screen (SRB), Colon Cancer; type: cell-based
Readout: Log10LC50

>>> test_value("COC1OC2(C)CCC3CCCC(CCOC(=O)c4ccc(C(=O)OCCC5CCCC6CCC7(C)OOC56C(OC)O7)cc4)C31OO2 (centres unmarked)")
">−4.00 M"
>>> test_value("COC1OC2(C)CCC3CCCC(CCOCCC4CCCC5CCC6(C)OOC45C(OC)O6)C31OO2 (centres unmarked)")
">−4.00 M"
>>> test_value("COC1OC2(C)CCC3CCCC(CCOC(=O)c4cccc(C(=O)OCCC5CCCC6CCC7(C)OOC56C(OC)O7)c4)C31OO2 (centres unmarked)")
">−4.30 M"
>>> test_value("CC(=O)O[C@H]1C(=O)[C@@]2(C)[C@H]([C@H](OC(=O)c3ccccc3)[C@]3(O)C[C@H](OC(=O)[C@H](O)[C@@H](NC(=O)c4ccccc4)c4ccccc4)C(C)=C1C3(C)C)[C@]1(OC(C)=O)CO[C@@H]1C[C@@H]2O [Paclitaxel, paclitaxel, reference compound]")
"−4.39 M"
>>> test_value("C[C@@H]1CC[C@H]2[C@@H](C)C(=O)O[C@@H]3O[C@@]4(C)CC[C@@H]1[C@]32OO4 [QHS, reference compound]")
">−4.00 M"

----------
Reported Log10LC50 values for a set of molecules
system: HCC-2998; assay: NCI 60 cell line screen (SRB), Colon Cancer; type: cell-based; details: HCC-2998 (Colon Cancer)
Readout: Log10LC50 (M)

>>> test_value("COC1OC2(C)CCC3CCCC(CCOCCC4CCCC5CCC6(C)OOC45C(OC)O6)C31OO2 (centres unmarked)")
"−4.04"
>>> test_value("CC(=O)O[C@H]1C(=O)[C@@]2(C)[C@H]([C@H](OC(=O)c3ccccc3)[C@]3(O)C[C@H](OC(=O)[C@H](O)[C@@H](NC(=O)c4ccccc4)c4ccccc4)C(C)=C1C3(C)C)[C@]1(OC(C)=O)CO[C@@H]1C[C@@H]2O [Paclitaxel, paclitaxel, reference compound]")
"−4.26"

----------
test system: M14; test: NCI 60 cell line screen (SRB), Melanoma; type: cell-based
Readout: Log10LC50

>>> test_value("C[C@@H]1CC[C@H]2[C@@H](C)C(=O)O[C@@H]3O[C@@]4(C)CC[C@@H]1[C@]32OO4 [QHS, reference compound]")
">−4.00 M"
>>> test_value("COC1OC2(C)CCC3CCCC(CCOC(=O)c4ccc(C(=O)OCCC5CCCC6CCC7(C)OOC56C(OC)O7)cc4)C31OO2 (centres unmarked)")
">−4.00 M"
>>> test_value("COC1OC2(C)CCC3CCCC(CCOC(=O)c4cccc(C(=O)OCCC5CCCC6CCC7(C)OOC56C(OC)O7)c4)C31OO2 (centres unmarked)")
">−4.30 M"
>>> test_value("COC1OC2(C)CCC3CCCC(CCOCCC4CCCC5CCC6(C)OOC45C(OC)O6)C31OO2 (centres unmarked)")
">−4.00 M"
>>> test_value("CC(=O)O[C@H]1C(=O)[C@@]2(C)[C@H]([C@H](OC(=O)c3ccccc3)[C@]3(O)C[C@H](OC(=O)[C@H](O)[C@@H](NC(=O)c4ccccc4)c4ccccc4)C(C)=C1C3(C)C)[C@]1(OC(C)=O)CO[C@@H]1C[C@@H]2O [Paclitaxel, paclitaxel, reference compound]")
"−4.13 M"

----------
tested on: K-562; test: NCI 60 cell line screen (SRB), Leukemia; type: cell-based; details: K-562 (Leukemia)
So basically: is Log10GI50 under -7 M? Then true. Not under? Then false.

>>> label("CC(=O)O[C@H]1C(=O)[C@@]2(C)[C@H]([C@H](OC(=O)c3ccccc3)[C@]3(O)C[C@H](OC(=O)[C@H](O)[C@@H](NC(=O)c4ccccc4)c4ccccc4)C(C)=C1C3(C)C)[C@]1(OC(C)=O)CO[C@@H]1C[C@@H]2O [Paclitaxel, paclitaxel, reference compound]")
"true"
>>> label("COC1OC2(C)CCC3CCCC(CCOC(=O)c4ccc(C(=O)OCCC5CCCC6CCC7(C)OOC56C(OC)O7)cc4)C31OO2 (centres unmarked) [Compound 11, Bis-ester Dimer]")
"false"
>>> label("C[C@@H]1CC[C@H]2[C@@H](C)C(=O)O[C@@H]3O[C@@]4(C)CC[C@@H]1[C@]32OO4 [QHS, reference compound]")
"false"
>>> label("COC1OC2(C)CCC3CCCC(CCOCCC4CCCC5CCC6(C)OOC45C(OC)O6)C31OO2 (centres unmarked) [Compound 6, Trioxane Ether Dimer]")
"false"

----------
tested on: MCF7/ADR-RES; assay: NCI 60 cell line screen (SRB), Breast Cancer; assay type: cell-based
Readout: Log10TGI

>>> test_value("COC1OC2(C)CCC3CCCC(CCOC(=O)c4ccc(C(=O)OCCC5CCCC6CCC7(C)OOC56C(OC)O7)cc4)C31OO2 (stereo not shown)")
">−4.00 M"
>>> test_value("CC(=O)O[C@H]1C(=O)[C@@]2(C)[C@H]([C@H](OC(=O)c3ccccc3)[C@]3(O)C[C@H](OC(=O)[C@H](O)[C@@H](NC(=O)c4ccccc4)c4ccccc4)C(C)=C1C3(C)C)[C@]1(OC(C)=O)CO[C@@H]1C[C@@H]2O [Paclitaxel, paclitaxel, reference compound]")
">−4.00 M"
>>> test_value("COC1OC2(C)CCC3CCCC(CCOC(=O)c4cccc(C(=O)OCCC5CCCC6CCC7(C)OOC56C(OC)O7)c4)C31OO2 (stereo not shown)")
">−4.0 M"
>>> test_value("COC1OC2(C)CCC3CCCC(CCOCCC4CCCC5CCC6(C)OOC45C(OC)O6)C31OO2 (stereo not shown)")
">−4.00 M"

----------
test system: HCT-15; assay: NCI 60 cell line screen (SRB), Colon Cancer; type: cell-based; settings: HCT-15 (Colon Cancer)
Readout: Log10TGI

>>> test_value("COC1OC2(C)CCC3CCCC(CCOC(=O)c4ccc(C(=O)OCCC5CCCC6CCC7(C)OOC56C(OC)O7)cc4)C31OO2 (centres unmarked)")
">−4.00 M"
>>> test_value("C[C@@H]1CC[C@H]2[C@@H](C)C(=O)O[C@@H]3O[C@@]4(C)CC[C@@H]1[C@]32OO4 [QHS, reference compound]")
">−4.00 M"
>>> test_value("COC1OC2(C)CCC3CCCC(CCOCCC4CCCC5CCC6(C)OOC45C(OC)O6)C31OO2 (centres unmarked)")
">−4.00 M"
>>> test_value("CC(=O)O[C@H]1C(=O)[C@@]2(C)[C@H]([C@H](OC(=O)c3ccccc3)[C@]3(O)C[C@H](OC(=O)[C@H](O)[C@@H](NC(=O)c4ccccc4)c4ccccc4)C(C)=C1C3(C)C)[C@]1(OC(C)=O)CO[C@@H]1C[C@@H]2O [Paclitaxel, paclitaxel, reference compound]")
">−4.00 M"
>>> test_value("COC1OC2(C)CCC3CCCC(CCOC(=O)c4cccc(C(=O)OCCC5CCCC6CCC7(C)OOC56C(OC)O7)c4)C31OO2 (centres unmarked)")
">−4.30 M"

----------
test system: OVCAR-5; assay: NCI 60 cell line screen (SRB), Ovarian Cancer; type: cell-based; conditions: OVCAR-5 (Ovarian Cancer)
Readout: Log10TGI

>>> test_value("COC1OC2(C)CCC3CCCC(CCOCCC4CCCC5CCC6(C)OOC45C(OC)O6)C31OO2 (centres unmarked)")
">−4.00 M"
>>> test_value("C[C@@H]1CC[C@H]2[C@@H](C)C(=O)O[C@@H]3O[C@@]4(C)CC[C@@H]1[C@]32OO4 [QHS, reference compound]")
">−4.00 M"
>>> test_value("CC(=O)O[C@H]1C(=O)[C@@]2(C)[C@H]([C@H](OC(=O)c3ccccc3)[C@]3(O)C[C@H](OC(=O)[C@H](O)[C@@H](NC(=O)c4ccccc4)c4ccccc4)C(C)=C1C3(C)C)[C@]1(OC(C)=O)CO[C@@H]1C[C@@H]2O [Paclitaxel, paclitaxel, reference compound]")
"−4.92 M"
>>> test_value("COC1OC2(C)CCC3CCCC(CCOC(=O)c4ccc(C(=O)OCCC5CCCC6CCC7(C)OOC56C(OC)O7)cc4)C31OO2 (centres unmarked)")
">−4.00 M"
>>> test_value("COC1OC2(C)CCC3CCCC(CCOC(=O)c4cccc(C(=O)OCCC5CCCC6CCC7(C)OOC56C(OC)O7)c4)C31OO2 (centres unmarked)")
">−4.30 M"
